Form field: inhibition at 0.5 µM (one value per entry).
- TARGET: UniProt P34998
- Format: binding
- STUDY_CONDITIONS: read-out: Inhibition of [125I]-Tyr0-sauvagine specific binding

[
  {
    "COMPOUND": "CCCN(CCC)c1nc(C)nc2c1sc(=O)n2-c1ccc(OC)cc1OC [8c]",
    "inhibition at 0.5 µM": "> 50%"
  },
  {
    "COMPOUND": "CCN(CC)c1nc(C)nc2c1sc(=O)n2-c1ccc(OC)cc1OC [8b]",
    "inhibition at 0.5 µM": "< 50%"
  },
  {
    "COMPOUND": "CCCNc1nc(C)nc2c1sc(=S)n2-c1ccc(OC)cc1OC [5a]",
    "inhibition at 0.5 µM": "< 50%"
  },
  {
    "COMPOUND": "CCCCN(CCCC)c1nc(C)nc2c1sc(=O)n2-c1ccc(OC)cc1OC [8d]",
    "inhibition at 0.5 µM": "< 50%"
  },
  {
    "COMPOUND": "CCCCN(CCCC)c1nc(C)nc2c1sc(=S)n2-c1ccc(OC)cc1OC [5d]",
    "inhibition at 0.5 µM": "> 50%"
  }
]

May I ask what inhibition at 0.5 µM has been recorded for CCCCN(CC)c1nc(C)nc2c1sc(=S)n2-c1ccc(OC)cc1OC [5e] ? > 50%

And CCCNc1nc(C)nc2c1sc(=O)n2-c1ccc(OC)cc1OC [8a] ? < 50%

Repeat for the following compound: CCN(CC)c1nc(C)nc2c1sc(=S)n2-c1ccc(OC)cc1OC [5b] > 50%

###

- TARGET: human CRFR1 (Homo sapiens, UniProt P34998)
- Assay type: binding
- STUDY_CONDITIONS: relative to antalarmin
READOUT_TYPE: Binding affinity fold lower than that of antalarmin (fold)

Some entries whose results are on file:
[
  {
    "STRUCTURE_SMILES_STRING": "CCCCN(CC)c1nc(C)nc2c1sc(=S)n2-c1ccc(OC)cc1OC",
    "TEST_RESULT": 10
  },
  {
    "STRUCTURE_SMILES_STRING": "CCN(CC)c1nc(C)nc2c1sc(=S)n2-c1ccc(OC)cc1OC",
    "TEST_RESULT": 5
  }
]

(1) CCCCN(CCCC)c1nc(C)nc2c1sc(=S)n2-c1ccc(OC)cc1OC
(2) CCCN(CCC)c1nc(C)nc2c1sc(=O)n2-c1ccc(OC)cc1OC
Hi, I'm comparing 1 with 2 and wondering which one has the bigger number for Binding affinity fold lower than that of antalarmin. Any idea? # respond with the chosen item's label 1

###

Protein target, amino acids: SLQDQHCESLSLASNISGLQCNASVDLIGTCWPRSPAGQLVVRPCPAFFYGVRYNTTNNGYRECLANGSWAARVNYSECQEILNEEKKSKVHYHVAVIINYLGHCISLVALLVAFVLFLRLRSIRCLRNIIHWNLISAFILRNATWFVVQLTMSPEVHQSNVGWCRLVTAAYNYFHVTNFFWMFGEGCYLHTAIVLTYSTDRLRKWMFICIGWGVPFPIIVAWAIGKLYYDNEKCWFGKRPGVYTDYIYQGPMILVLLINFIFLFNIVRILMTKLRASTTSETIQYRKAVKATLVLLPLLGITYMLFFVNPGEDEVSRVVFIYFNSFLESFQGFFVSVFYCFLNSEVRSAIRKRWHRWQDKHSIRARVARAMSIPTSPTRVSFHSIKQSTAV
READOUT_TYPE: Ki (nM)

(1) CCCCN(CC)c1nc(C)nc2c1c(C)c(C)n2-c1c(C)cc(C)cc1C [antalarmin, reference compound]
(2) CCCN(CCC)c1nc(C)nc2c1sc(=O)n2-c1ccc(OC)cc1OC
(3) CCCCN(CC)c1nc(C)nc2c1sc(=S)n2-c1ccc(OC)cc1OC
Would you mind ranking these compounds by ascending Ki? Please respond with the labels ordered as the question requires. 1, 2, 3
